Would you kindly list IC50 for each of these molecules?
Experimental System: Cdk6/CyclinD3 (Homo sapiens (Human))
Sequence (Q00534 whole entry): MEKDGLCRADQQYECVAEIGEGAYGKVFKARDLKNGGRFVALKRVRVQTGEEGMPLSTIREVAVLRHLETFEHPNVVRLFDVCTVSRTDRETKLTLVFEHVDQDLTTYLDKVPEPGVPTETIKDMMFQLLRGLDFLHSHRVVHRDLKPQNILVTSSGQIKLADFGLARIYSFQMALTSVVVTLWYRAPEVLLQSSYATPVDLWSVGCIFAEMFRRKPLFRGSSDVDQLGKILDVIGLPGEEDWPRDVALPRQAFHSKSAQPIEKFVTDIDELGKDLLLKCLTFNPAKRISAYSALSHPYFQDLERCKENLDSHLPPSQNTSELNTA
Sequence (P30281 whole entry partner): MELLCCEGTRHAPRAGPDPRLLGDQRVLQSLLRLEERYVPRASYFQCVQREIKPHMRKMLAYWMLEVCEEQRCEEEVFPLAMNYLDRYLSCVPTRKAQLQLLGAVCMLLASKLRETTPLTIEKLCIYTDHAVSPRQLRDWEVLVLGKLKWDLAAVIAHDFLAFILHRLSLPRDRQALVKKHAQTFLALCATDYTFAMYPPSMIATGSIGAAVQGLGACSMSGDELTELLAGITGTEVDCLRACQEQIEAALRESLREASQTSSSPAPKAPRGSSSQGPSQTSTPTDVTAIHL
Assay Summary: Cdk6 kinase inhibition assay with recombinant Cdk6/CyclinD3, Rb substrate, [33P]-ATP filter plate
Reported Conditions: 25 μM ATP, read-out: Cdk 6 IC50
Quick reminder: number only, in nM, skip the unit.

INPUT: What reported IC50 corresponds to CC[C@@H](C)n1c2cnccc2c2cnc(Nc3ccc(N4CCNCC4)cn3)nc21 on Cdk6/CyclinD3 (Homo sapiens (Human))?
OUTPUT: 11

INPUT: What reported IC50 corresponds to C[C@H](CO)Nc1ccc(Nc2ncc3c4ccncc4n(C4CCCC4)c3n2)nn1 on Cdk6/CyclinD3 (Homo sapiens (Human))?
OUTPUT: 33.7

INPUT: What reported IC50 corresponds to OC1CCCN(Cc2ccc(Nc3ncc4c5ccncc5n(C5CCCC5)c4n3)nc2)C1 (centres unmarked) on Cdk6/CyclinD3 (Homo sapiens (Human))?
OUTPUT: 15

INPUT: What reported IC50 corresponds to O=S(=O)(c1ccc(Nc2ncc3c4ccnc(F)c4n(C4CCCC4)c3n2)nc1)N1CCNCC1 on Cdk6/CyclinD3 (Homo sapiens (Human))?
OUTPUT: 3.9

INPUT: What reported IC50 corresponds to COc1cc2c3cnc(Nc4ccc(N5CCNCC5)cn4)nc3n(C3CCCC3)c2cn1 on Cdk6/CyclinD3 (Homo sapiens (Human))?
OUTPUT: 500

INPUT: What reported IC50 corresponds to CC[C@@H](C)n1c2cnccc2c2cnc(Nc3ccc(N4CCN[C@@H](C)C4)cn3)nc21 on Cdk6/CyclinD3 (Homo sapiens (Human))?
OUTPUT: 11

INPUT: What reported IC50 corresponds to CN(CCO)C1CCN(c2ccc(Nc3ncc4c5ccncc5n(C5CCCC5)c4n3)nc2)CC1 on Cdk6/CyclinD3 (Homo sapiens (Human))?
OUTPUT: 37

INPUT: What reported IC50 corresponds to O[C@H]1CCN(Cc2csc(Nc3ncc4c5ccncc5n(C5CCCC5)c4n3)n2)C1 on Cdk6/CyclinD3 (Homo sapiens (Human))?
OUTPUT: 17

INPUT: What reported IC50 corresponds to O[C@H]1CCCN(C2CCN(c3ccc(Nc4ncc5c6ccncc6n(C6CCCC6)c5n4)nn3)CC2)C1 on Cdk6/CyclinD3 (Homo sapiens (Human))?
OUTPUT: 30

INPUT: What reported IC50 corresponds to O[C@@H]1CCN(c2ccc(Nc3ncc4c5ccnc(F)c5n(C5CCCC5)c4n3)nc2)C1 [Example 186A] on Cdk6/CyclinD3 (Homo sapiens (Human))?
OUTPUT: 2

INPUT: What reported IC50 corresponds to Fc1ccc(-n2c3cnccc3c3cnc(Nc4ccc(N5CCNCC5)cn4)nc32)cc1 on Cdk6/CyclinD3 (Homo sapiens (Human))?
OUTPUT: 13

INPUT: What reported IC50 corresponds to NC1[C@H]2CN(c3ccc(Nc4ncc5c6ccncc6n(C6CCCC6)c5n4)nn3)C[C@@H]12 (some centres unmarked) on Cdk6/CyclinD3 (Homo sapiens (Human))?
OUTPUT: 101

INPUT: What reported IC50 corresponds to C1=C(c2ccc(Nc3ncc4c5ccncc5n(C5CCCC5)c4n3)nn2)CCNC1 on Cdk6/CyclinD3 (Homo sapiens (Human))?
OUTPUT: 60

INPUT: What reported IC50 corresponds to CNC1CCN(c2ccc(Nc3ncc4c5ccncc5n(C5CCCC5)c4n3)nn2)CC1 on Cdk6/CyclinD3 (Homo sapiens (Human))?
OUTPUT: 11

INPUT: What reported IC50 corresponds to CC[C@@H](C)n1c2cnccc2c2cnc(Nc3ccc(N4CCNCC4)nn3)nc21 on Cdk6/CyclinD3 (Homo sapiens (Human))?
OUTPUT: 23

INPUT: What reported IC50 corresponds to O=C1CN(Cc2ccc(Nc3ncc4c5ccncc5n(C5CCCC5)c4n3)nc2)CCN1 on Cdk6/CyclinD3 (Homo sapiens (Human))?
OUTPUT: 3

INPUT: What reported IC50 corresponds to CN(C)C1CCN(c2ccc(Nc3ncc4c5ccnc(F)c5n(CC5CC5)c4n3)nn2)CC1 on Cdk6/CyclinD3 (Homo sapiens (Human))?
OUTPUT: 150
